# Read-out: TIMP metallopeptidase inhibitor 1 (TIMP1), TIMP1 (gene 7076)
# Assay remarks: BSK_hDFCGF_TIMP1: BioMAP Diversity Plus: hDFCGF Assay for TIMP metallopeptidase inhibitor 1 (TIMP1) Biomarker Activity (AID 2283062)
# Applied conditions: primary human foreskin fibroblasts; actives raise or lower the signal
Active and inactive are the calls of the source. Rule for the calls: active = hit-call score of the fitted dose curve at least 0.9, where 1 is the maximum; inactive = score below 0.9.
Thanks in advance; please answer with one of these: 1 (yes) = active, 0 (no) = inactive

compound="CC1(C)C(C=C(Cl)Cl)C1C(=O)OCc1cccc(Oc2ccccc2)c1 (centres undefined)" group="0 (no)"
compound=S=C(S)NCCNC(=S)S.[Mn+2].[S-]C([S-])=NCCN=C([S-])[S-].[Zn+2] group="0 (no)"
compound=CCCN(CCC)c1c([N+](=O)[O-])cc(C(F)(F)F)c(N)c1[N+](=O)[O-] group="1 (yes)"
compound="CCC(O)=C1C(=O)CC(C(=O)O)CC1=O (centres undefined)" group="0 (no)"
compound="C[C@]12CC[C@@H]3c4ccc(O)cc4C[C@@H](CCCCCCCCCS(=O)CCCC(F)(F)C(F)(F)F)[C@H]3[C@@H]1CC[C@@H]2O (some centres undefined)" group="0 (no)"
compound=O=C(c1ccccc1)C1CCCCC1 group="0 (no)"
compound=CCOC(=O)NCCOc1ccc(Oc2ccccc2)cc1 group="0 (no)"
compound=Oc1ccc(C(c2ccc(O)cc2)C(Cl)(Cl)Cl)cc1 group="1 (yes)"

# evaluate next
Query: Per the records of this test, what outcome belongs to CC(=O)[C@H]1CC[C@H]2[C@@H]3CCC4=CC(=O)CC[C@]4(C)[C@H]3CC[C@]12C ?
Reply: 0 (no)

====

# Read-out: Monocyte Chemoattractant Protein-1 (MCP1), CCL2 (gene 6347)
# Assay remarks: BSK_SAg_MCP1: BioMAP Diversity Plus: SAg Assay for Monocyte Chemoattractant Protein-1 (MCP1) Biomarker Activity (AID 2283090)
# Applied conditions: primary human HUVEC with PBMC; actives raise or lower the signal
Calls of active or inactive are those of the source. Rule for the calls: active = hit-call score of the fitted dose curve at least 0.9, where 1 is the maximum; inactive = score below 0.9.
Thanks in advance; please answer with one of these: true (active), false (inactive)

Some solved cases for reference:
molecule="CCCCC(CC)COC(=O)c1ccccc1C(=O)O (configuration not stated)" group=false
molecule="CCC(C)OC(=O)N1CCCCC1CCO (configuration not stated)" group=false
molecule=Cc1nn(C)c(Oc2ccccc2)c1C=NOCc1ccc(C(=O)OC(C)(C)C)cc1 group=true
molecule="CCCCC(CC)CN1C(=O)C2C3C=CC(C3)C2C1=O (configuration not stated)" group=false

# evaluate next
Query: Per the records of this test, what outcome belongs to N[C@@H](Cc1cc(I)c(Oc2ccc(O)c(I)c2)c(I)c1)C(=O)O ?
Reply: false

====

# Study system: Ratio of Nucleoli Translocation and Cytoplasm, AR (gene 367) (UniProt P10275)
# Sequence (P10275 whole entry, looked up): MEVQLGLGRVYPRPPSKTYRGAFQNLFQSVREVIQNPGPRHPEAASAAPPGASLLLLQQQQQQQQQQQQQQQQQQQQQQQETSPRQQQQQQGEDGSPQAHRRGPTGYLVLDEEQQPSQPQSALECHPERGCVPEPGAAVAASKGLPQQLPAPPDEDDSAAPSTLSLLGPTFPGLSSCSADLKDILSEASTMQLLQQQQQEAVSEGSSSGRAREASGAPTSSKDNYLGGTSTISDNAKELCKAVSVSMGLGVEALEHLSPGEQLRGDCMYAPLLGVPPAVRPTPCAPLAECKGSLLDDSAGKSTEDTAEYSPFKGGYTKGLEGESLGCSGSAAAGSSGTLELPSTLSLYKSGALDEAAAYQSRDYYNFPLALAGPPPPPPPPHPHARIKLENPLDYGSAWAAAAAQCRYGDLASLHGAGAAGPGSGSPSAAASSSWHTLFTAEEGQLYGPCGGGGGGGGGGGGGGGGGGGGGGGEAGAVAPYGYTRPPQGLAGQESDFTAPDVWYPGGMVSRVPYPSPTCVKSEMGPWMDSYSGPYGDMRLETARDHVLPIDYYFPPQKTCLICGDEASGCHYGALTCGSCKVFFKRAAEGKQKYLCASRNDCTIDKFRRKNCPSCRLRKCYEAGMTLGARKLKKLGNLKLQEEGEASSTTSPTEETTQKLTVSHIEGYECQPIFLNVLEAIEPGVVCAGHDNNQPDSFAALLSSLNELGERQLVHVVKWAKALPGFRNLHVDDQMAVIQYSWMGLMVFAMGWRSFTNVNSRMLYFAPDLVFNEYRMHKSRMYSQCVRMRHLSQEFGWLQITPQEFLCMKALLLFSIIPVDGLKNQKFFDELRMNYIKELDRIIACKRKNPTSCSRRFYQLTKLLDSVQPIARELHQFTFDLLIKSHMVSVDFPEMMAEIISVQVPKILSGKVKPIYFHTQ
# Assay remarks: UPITT_HCI_U2OS_AR_TIF2_Nucleoli_Cytoplasm_Ratio_Agonist: University of Pittsburgh U2OS Androgen Receptor-Transcriptional Intermediary Factor 2 (AR-TIF2) Agonism High Content Imaging Assay for Ratio of Nucleoli Translocation and Cytoplasm (AID 2284000);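 note: hits raise the red nucleolar to cytoplasm ratio above vehicle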
Results filed as inconclusive are left out. Activity calls are given as the source filed them. The calls were made as follows: active = hit-call score of the fitted dose curve at least 0.9, where 1 is the maximum; inconclusive = response in the unintended direction; inactive = score below 0.9.
Thanks in advance; please answer with one of these: active, inactive

compound=CCCCOCCOCCOCc1cc2c(cc1CCC)OCO2 group=inactive
compound=CC(C)(c1ccc(O)cc1)c1ccc(O)cc1 group=active

Query: Per the records of this test, what outcome belongs to N#CSCSc1nc2ccccc2s1 ?
Reply: active

Query: Per the records of this test, what outcome belongs to CC1(C)C(C=C(Cl)Cl)C1C(=O)OCc1cccc(Oc2ccccc2)c1 (configuration not stated) ?
Reply: inactive

Query: Per the records of this test, what outcome belongs to CSC(=O)c1cccc2nnsc12 ?
Reply: inactive

Query: Per the records of this test, what outcome belongs to CCCN(CCC)C(=O)SCC ?
Reply: inactive

Query: Per the records of this test, what outcome belongs to CCCOC(=O)c1ccc(C(=O)OCCC)nc1 ?
Reply: inactive
